Values from paper PMC8625065

tested on: poly A-poly U (RNA, polymer) A/U; assay: fluorescence titration, Scatchard; conditions: Na+ (sodium cacodylate, I = 0.05 M); sodium cacodylate buffer pH 7.0, 25 °C; polynucleotide concentration as phosphates; per base
parameter: logKs

smiles text: Cl.O=c1ccc2ccc(OCc3cn(-c4ccc(C5=NCCN5)cc4)nn3)cc2o1
parameter: logKs
assay result: 4.9
//
smiles text: c1cc(C2=NCCN2)c2ccn(Cc3cn(-c4ccc(C5=NCCN5)cc4)nn3)c2c1
parameter: logKs
assay result: 4.2
//
smiles text: Cl.Cl.c1cc(C2=NCCN2)ccc1OCc1cn(-c2ccc(C3=NCCN3)cc2)nn1
parameter: logKs
assay result: 7.0
//
smiles text: Cl.c1cnc2c(OCc3cn(-c4ccc(C5=NCCN5)cc4)nn3)cccc2c1
parameter: logKs
assay result: 5.1
